experimental-system: Protein skinhead-1 (Caenorhabditis elegans)
Sequence (P34707 whole entry): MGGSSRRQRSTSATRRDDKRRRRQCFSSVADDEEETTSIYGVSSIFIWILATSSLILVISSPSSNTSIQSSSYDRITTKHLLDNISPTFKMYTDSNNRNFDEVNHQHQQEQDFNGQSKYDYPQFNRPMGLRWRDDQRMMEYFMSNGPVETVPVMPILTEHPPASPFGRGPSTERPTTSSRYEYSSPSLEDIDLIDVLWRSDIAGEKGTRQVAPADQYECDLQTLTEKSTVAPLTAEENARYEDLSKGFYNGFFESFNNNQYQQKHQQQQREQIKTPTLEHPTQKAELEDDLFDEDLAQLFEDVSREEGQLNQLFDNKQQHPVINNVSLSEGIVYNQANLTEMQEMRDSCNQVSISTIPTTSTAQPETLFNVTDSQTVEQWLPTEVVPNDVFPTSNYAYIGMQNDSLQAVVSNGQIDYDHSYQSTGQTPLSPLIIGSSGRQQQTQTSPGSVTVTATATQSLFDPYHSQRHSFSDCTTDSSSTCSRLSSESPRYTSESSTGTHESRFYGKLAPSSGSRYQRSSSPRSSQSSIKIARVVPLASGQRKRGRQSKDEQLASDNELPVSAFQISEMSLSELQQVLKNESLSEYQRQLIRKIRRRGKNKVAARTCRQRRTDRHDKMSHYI
Format: functional
Calls of active or inactive are those of the source.
Can you tell me IC50 for the items I'm about to list?

Item Cc1cnc(C(=O)Nc2ccccc2-c2ccc(C)o2)cn1 has what recorded IC50?
> 100 µM (inactive)

Again, but for Brc1ccc(OCc2n[nH]c(-c3ccccn3)n2)cc1
> 100 µM (inactive)

Again, but for Fc1ccc(-n2nnc(-c3nccs3)n2)cc1
22.8 µM (active)

Again, but for CCN(CC)S(=O)(=O)c1cccc2c(N(C)C)cccc12
> 100 µM (inactive)

Again, but for Cc1cc2ccccn2c1C(=O)Nc1cccc(Cl)c1
> 100 µM (inactive)

Again, but for Cc1ccc(F)cc1NC(=O)Cc1nn(C)c(=O)c2ccccc12
> 100 µM (inactive)

Again, but for CCCCOc1ccc(C(=O)OC2CC(C)N(C)CC2C)cc1 (stereo not given)
27.6 µM (active)

Again, but for O=C(CN(Cc1ccco1)C(=O)CNS(=O)(=O)c1ccc(Cl)cc1)NC1CCCCC1
> 100 µM (inactive)

Again, but for Brc1ccc2nc(N3CCCC3)sc2c1
79.4 µM (inactive)

Again, but for Cc1cc(OCC(O)CN2CCN(C)CC2)ccc1C(C)C (stereo not given)
> 100 µM (inactive)
